Values from ChEMBL document CHEMBL3875174

measured_on: Dual specificity tyrosine-phosphorylation-regulated kinase 1A (Homo sapiens, UniProt Q13627)
assay_explanation: Inhibition of GST-tagged human recombinant DYRK1A expressed in Escherichia coli using RS peptide as substrate incubated for 30 mins in presence of [gamma-33 P] ATP by liquid scintillation counting analysis
pIC50: −log10 of the molar value.
Would you mind labelling by pIC50? At or over 6 is Satisfied, under is Not satisfied.

Would you please look over these solved cases?
Task item: Say whether COc1ccc2[nH]cc(/C(C#N)=C/c3cccnc3)c2c1 shows pIC50 of 6 or more.
Reply: Not satisfied

Task item: Could you tell me if the measured pIC50 of N#C/C(=C\c1ccccn1)c1c[nH]c2ccccc12 reaches 6 or more?
Reply: Not satisfied

Task item: Decide: is the reported value of pIC50 for N#C/C(=C\c1ccncc1)c1c[nH]c2ccccc12 equal to or greater than 6?
Reply: Not satisfied

Task item: Entry N#C/C(=C\c1cccnc1)c1c[nH]c2ccccc12 : is its pIC50 no less than 6?
Reply: Not satisfied

Task item: Given COc1ccc2[nH]cc(/C(C#N)=C(\N)c3cccnc3)c2c1 , state whether its pIC50 is at least 6.
Reply: Not satisfied

Task item: Does the molecule N#Cc1cc2cnccc2c2[nH]c3ccc(F)cc3c12 have recorded pIC50 that is 6 or more?
Reply: Satisfied

Further cases:
Task item: Is pIC50 at least 6? Consider COc1ccc2c(c1)[nH]c1c3c(OC)cncc3cc(C(N)=O)c21
Reply: Not satisfied

Task item: Quick check: does N#Cc1cc2ccccc2c2[nH]c3ccccc3c12 have pIC50 greater than or equal to 6?
Reply: Not satisfied

Task item: Given COc1ccc2[nH]c3c4ccncc4cc(C#N)c3c2c1 , state whether its pIC50 is at least 6.
Reply: Satisfied

Task item: Item COc1cncc(/C=C(\C#N)c2c[nH]c3ccc(OC)cc23)c1 with pIC50 of 6 or above?
Reply: Not satisfied

Task item: State whether the measured pIC50 reaches 6, counting equality as reaching it, for N#Cc1cc2ccncc2c2[nH]c3ccccc3c12
Reply: Satisfied

Task item: Hello, I need to know if COc1ccc2c(c1)[nH]c1c3ccncc3cc(C(N)=O)c21 has measured pIC50 not below 6. Thanks!
Reply: Not satisfied
